- assay protocol: PG toxicokinetics in dog plasma (LC-MS/MS), studies 001-005
- Type: in vivo
- experimental setup: male, beagle, po, 25 mg/kg/day, male (M), PG 25, NaCDC 20, MEDI7219 0.25 mg/kg/day, clin excipients, Study 005 Day 266, read-out: Propyl Gallate Exposure (AUC0-24)
measured metric: AUC(0-t)

{"molecule": "CCCOC(=O)c1cc(O)c(O)c(O)c1 [PG, propyl gallate]", "measured metric": "AUC(0-t)", "result": "158 ng·h/mL"}

----------
- assay protocol: PG toxicokinetics in dog plasma (LC-MS/MS), studies 001-005
- Type: in vivo
- experimental setup: beagle, po, PG 44, NaCDC 35, MEDI7219 2.6 mg/kg/day, clin excipients, Study 005 Day 196, read-out: Propyl Gallate Exposure (AUC0-24)
measured metric: AUC(0-t) (ng·h/mL)

{"compound": "CCCOC(=O)c1cc(O)c(O)c(O)c1 [PG, propyl gallate]", "measured metric": "AUC(0-t)", "numeric result": 1870}

----------
- assay protocol: PG toxicokinetics in dog plasma (LC-MS/MS), studies 001-005
- Assay type: in vivo
- experimental setup: beagle, po, PG 36, NaCDC 18, MEDI7219 1.1 mg/kg/day, clin excipients, Study 004 Day 78, read-out: Propyl Gallate Exposure (AUC0-24)
measured metric: AUC(0-t) (ng·h/mL)

{"compound": "CCCOC(=O)c1cc(O)c(O)c(O)c1 [PG, propyl gallate]", "numeric result": 282}

----------
- assay protocol: PG toxicokinetics in dog plasma (LC-MS/MS), studies 001-005
- Type: in vivo
- experimental setup: beagle, po, 200 mg/kg/day, PG 200, NaCDC 100, MEDI7219 0 mg/kg/day, clin excipients, Study 002 Day 14, read-out: Propyl Gallate Exposure (AUC0-24)
measured metric: AUC(0-t) (ng·h/mL)

{"compound": "CCCOC(=O)c1cc(O)c(O)c(O)c1 [PG, propyl gallate]", "measured metric": "AUC(0-t)", "unit tag": "ng·h/mL", "numeric result": 3250}

----------
- assay protocol: PG toxicokinetics in dog plasma (LC-MS/MS), studies 001-005
- Type: in vivo
- experimental setup: beagle, po, PG 60, NaCDC 48, MEDI7219 3.6 mg/kg/day, clin excipients, Study 005 Day 112, read-out: Propyl Gallate Exposure (AUC0-24)

{"compound": "CCCOC(=O)c1cc(O)c(O)c(O)c1 [PG, propyl gallate]", "AUC(0-t) [ng·h/mL]": 829}

----------
- assay protocol: PG toxicokinetics in dog plasma (LC-MS/MS), studies 001-005
- Assay type: in vivo
- experimental setup: beagle, po, 200 mg/kg/day, PG 200, NaCDC 0, MEDI7219 0 mg/kg/day, clin excipients minus NaCDC, Study 002 Day 14, read-out: Propyl Gallate Exposure (AUC0-24)

{"molecule": "CCCOC(=O)c1cc(O)c(O)c(O)c1 [PG, propyl gallate]", "AUC(0-t) (ng·h/mL)": 2580}

----------
- assay protocol: PG toxicokinetics in dog plasma (LC-MS/MS), studies 001-005
- Format: in vivo
- experimental setup: beagle, po, PG 100, NaCDC 50, MEDI7219 0 mg/kg/day, clin excipients, Study 004 Day 78, read-out: Propyl Gallate Exposure (AUC0-24)
measured metric: AUC(0-t) (µg·h/mL)

{"compound": "CCCOC(=O)c1cc(O)c(O)c(O)c1 [PG, propyl gallate]", "numeric result": 1.83}
